Listed next: entries and their corresponding residual activity.
system: UniProtKB P36888
Sequence (P36888 whole entry, looked up): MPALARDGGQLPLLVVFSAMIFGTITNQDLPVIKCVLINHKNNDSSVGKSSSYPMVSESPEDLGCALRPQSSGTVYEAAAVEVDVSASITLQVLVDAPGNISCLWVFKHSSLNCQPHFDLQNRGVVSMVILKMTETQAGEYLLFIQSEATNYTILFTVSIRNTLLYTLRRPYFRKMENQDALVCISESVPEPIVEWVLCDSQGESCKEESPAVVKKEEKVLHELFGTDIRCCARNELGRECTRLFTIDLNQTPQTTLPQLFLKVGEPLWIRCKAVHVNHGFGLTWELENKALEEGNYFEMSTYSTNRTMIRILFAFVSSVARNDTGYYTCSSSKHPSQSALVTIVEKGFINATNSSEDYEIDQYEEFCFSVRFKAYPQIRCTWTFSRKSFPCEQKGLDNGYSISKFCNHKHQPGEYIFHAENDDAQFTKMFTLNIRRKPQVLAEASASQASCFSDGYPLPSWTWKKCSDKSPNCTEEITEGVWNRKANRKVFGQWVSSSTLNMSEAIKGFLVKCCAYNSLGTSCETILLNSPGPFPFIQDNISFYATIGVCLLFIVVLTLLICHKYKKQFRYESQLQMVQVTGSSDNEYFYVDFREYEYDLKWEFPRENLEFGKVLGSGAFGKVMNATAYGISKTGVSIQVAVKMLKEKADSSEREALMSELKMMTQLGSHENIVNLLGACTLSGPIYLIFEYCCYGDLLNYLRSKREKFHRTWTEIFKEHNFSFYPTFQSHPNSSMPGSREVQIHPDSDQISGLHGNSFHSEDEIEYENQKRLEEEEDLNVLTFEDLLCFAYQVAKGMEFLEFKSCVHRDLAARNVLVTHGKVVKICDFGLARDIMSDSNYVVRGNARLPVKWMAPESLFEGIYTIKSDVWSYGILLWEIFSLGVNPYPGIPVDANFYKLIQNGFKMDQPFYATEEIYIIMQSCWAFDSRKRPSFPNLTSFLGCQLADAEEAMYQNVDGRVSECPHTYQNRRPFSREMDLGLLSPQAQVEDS
assay: radiometric filter-binding kinase assay, Kinase HotSpot
condition summary: compound 0.5 µM; ATP 10 µM
test readout: residual activity (%)

[
  {
    "item smiles": "O=C(c1ccccc1)c1ccc(N2CCOCC2)cc1O",
    "test readout": "residual activity",
    "recorded measurement": 90.6
  },
  {
    "item smiles": "CCc1nc(-c2ccc(OC)cc2)[nH]c1-c1ccncc1",
    "test readout": "residual activity",
    "recorded measurement": 91.4
  },
  {
    "item smiles": "O=C1NC(=O)c2cc(Nc3ccc(F)cc3)c(Nc3ccc(F)cc3)cc21",
    "test readout": "residual activity",
    "recorded measurement": 91.5
  },
  {
    "item smiles": "Nc1ncnc2c1cnn2-c1ccccc1",
    "test readout": "residual activity",
    "recorded measurement": 88.9
  }
]

* * *

system: UniProt P27448
Sequence (P27448 whole entry, looked up): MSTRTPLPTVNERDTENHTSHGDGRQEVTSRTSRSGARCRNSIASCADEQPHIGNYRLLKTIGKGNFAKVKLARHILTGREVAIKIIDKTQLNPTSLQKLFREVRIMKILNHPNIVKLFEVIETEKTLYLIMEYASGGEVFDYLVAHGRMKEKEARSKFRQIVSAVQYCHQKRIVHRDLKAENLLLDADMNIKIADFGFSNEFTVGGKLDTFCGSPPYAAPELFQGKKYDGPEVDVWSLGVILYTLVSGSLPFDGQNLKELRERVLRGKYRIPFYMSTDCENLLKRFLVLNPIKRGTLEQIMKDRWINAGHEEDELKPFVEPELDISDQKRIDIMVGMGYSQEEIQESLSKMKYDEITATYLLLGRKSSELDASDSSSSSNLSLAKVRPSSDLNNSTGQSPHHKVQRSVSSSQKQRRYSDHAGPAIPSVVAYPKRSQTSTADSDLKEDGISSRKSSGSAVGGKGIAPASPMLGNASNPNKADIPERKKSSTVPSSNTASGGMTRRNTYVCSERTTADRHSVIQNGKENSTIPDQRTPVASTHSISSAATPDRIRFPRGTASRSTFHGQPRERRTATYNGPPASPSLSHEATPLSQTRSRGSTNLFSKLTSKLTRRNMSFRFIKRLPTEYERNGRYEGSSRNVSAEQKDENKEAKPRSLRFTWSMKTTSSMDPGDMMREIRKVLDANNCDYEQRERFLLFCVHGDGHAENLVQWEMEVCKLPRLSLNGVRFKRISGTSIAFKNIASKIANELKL
assay: radiometric filter-binding kinase assay, Kinase HotSpot
condition summary: compound 0.5 µM; ATP 10 µM
Listed next: entries and their corresponding residual activity.

[
  {
    "item smiles": "Cn1cc(/C=C2\\C(=O)Nc3ccc(S(N)(=O)=O)cc32)c2ccccc21",
    "residual activity / %": 57.2
  },
  {
    "item smiles": "CCOc1cc2ncnc(Nc3cccc(Br)c3)c2cc1OCC",
    "residual activity / %": 98.8
  },
  {
    "item smiles": "O=C1NC(=O)c2cc(Nc3ccc(F)cc3)c(Nc3ccc(F)cc3)cc21",
    "residual activity / %": 90.8
  },
  {
    "item smiles": "O=c1c2ccccc2[nH]c(=S)n1CCN1CCC(=C(c2ccc(F)cc2)c2ccc(F)cc2)CC1",
    "residual activity / %": 107
  },
  {
    "item smiles": "CCc1nc(-c2ccc(OC)cc2)[nH]c1-c1ccncc1",
    "residual activity / %": 101
  },
  {
    "item smiles": "N#CCCc1ccc2c(c1)-c1[nH]c3ccc([N+](=O)[O-])cc3c1CC(=O)N2",
    "residual activity / %": 67.3
  },
  {
    "item smiles": "Nc1ncnc2c1cnn2-c1ccccc1",
    "residual activity / %": 86.1
  }
]

* * *

system: MKNK2 (human) (UniProt Q9HBH9)
Sequence (Q9HBH9 whole entry, looked up): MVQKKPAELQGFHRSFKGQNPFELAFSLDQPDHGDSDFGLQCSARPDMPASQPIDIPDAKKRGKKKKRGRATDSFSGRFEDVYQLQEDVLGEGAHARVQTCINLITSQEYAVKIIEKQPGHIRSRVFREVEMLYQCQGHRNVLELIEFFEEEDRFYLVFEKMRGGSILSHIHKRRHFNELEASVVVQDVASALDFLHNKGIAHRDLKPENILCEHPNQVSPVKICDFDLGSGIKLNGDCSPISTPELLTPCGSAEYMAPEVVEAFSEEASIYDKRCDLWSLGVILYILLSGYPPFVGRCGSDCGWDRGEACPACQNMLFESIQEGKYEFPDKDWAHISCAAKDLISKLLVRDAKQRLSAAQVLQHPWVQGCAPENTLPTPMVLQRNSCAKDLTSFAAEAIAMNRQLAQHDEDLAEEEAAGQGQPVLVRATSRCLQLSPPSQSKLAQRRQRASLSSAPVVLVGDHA
assay: radiometric filter-binding kinase assay, Kinase HotSpot
condition summary: compound 0.5 µM; ATP 10 µM

[
  {
    "item smiles": "COc1cc2c(cc1OC)-c1[nH]nc(Nc3cccc(F)c3)c1C2",
    "residual activity": "91.5%"
  },
  {
    "item smiles": "N#CCCc1ccc2c(c1)-c1[nH]c3ccc([N+](=O)[O-])cc3c1CC(=O)N2",
    "residual activity": "87.7%"
  },
  {
    "item smiles": "CCc1nc(-c2ccc(OC)cc2)[nH]c1-c1ccncc1",
    "residual activity": "88.2%"
  },
  {
    "item smiles": "O=c1[nH]c2ccccc2n1C1CCN(Cc2ccc(-c3nc4cc5[nH]cnc5cc4nc3-c3ccccc3)cc2)CC1",
    "residual activity": "98.7%"
  },
  {
    "item smiles": "CCCCc1c(-c2ccc(O)cc2)[nH]c2nccnc12",
    "residual activity": "107%"
  },
  {
    "item smiles": "O=c1c(-c2ccc(F)cc2)c(-c2ccncc2)[nH]n1-c1ccc(Cl)cc1",
    "residual activity": "97.2%"
  },
  {
    "item smiles": "c1ccc(-c2cnc(Nc3ccc(OCCN4CCCC4)cc3)s2)cc1",
    "residual activity": "18.6%"
  },
  {
    "item smiles": "COc1cc2ncnc(Nc3ccc(O)c(Br)c3)c2cc1OC",
    "residual activity": "18%"
  },
  {
    "item smiles": "O=C1NC(=O)c2cc(Nc3ccc(F)cc3)c(Nc3ccc(F)cc3)cc21",
    "residual activity": "101%"
  },
  {
    "item smiles": "N#C/C(=C1/Nc2ccccc2S1)c1ccnc(NCCc2cccnc2)n1",
    "residual activity": "51%"
  },
  {
    "item smiles": "N/C(=N\\N=C/c1ccc(-c2cccc([N+](=O)[O-])c2)o1)N[N+](=O)[O-]",
    "residual activity": "89.3%"
  },
  {
    "item smiles": "COc1cc2c(N3CCN(C(=O)Nc4ccc(OC(C)C)cc4)CC3)ncnc2cc1OCCCN1CCCCC1",
    "residual activity": "99%"
  },
  {
    "item smiles": "N#Cc1c(NC(=O)c2cccc3ccccc23)sc2c1CCCC2",
    "residual activity": "106%"
  },
  {
    "item smiles": "O=S(=O)(NCCNC/C=C/c1ccc(Br)cc1)c1cccc2cnccc12",
    "residual activity": "78.7%"
  },
  {
    "item smiles": "COc1cccc(-c2cc(=O)c3ccccc3o2)c1N",
    "residual activity": "108%"
  }
]

* * *

system: PDPK1 (human) (UniProt O15530)
Sequence (O15530 whole entry, looked up): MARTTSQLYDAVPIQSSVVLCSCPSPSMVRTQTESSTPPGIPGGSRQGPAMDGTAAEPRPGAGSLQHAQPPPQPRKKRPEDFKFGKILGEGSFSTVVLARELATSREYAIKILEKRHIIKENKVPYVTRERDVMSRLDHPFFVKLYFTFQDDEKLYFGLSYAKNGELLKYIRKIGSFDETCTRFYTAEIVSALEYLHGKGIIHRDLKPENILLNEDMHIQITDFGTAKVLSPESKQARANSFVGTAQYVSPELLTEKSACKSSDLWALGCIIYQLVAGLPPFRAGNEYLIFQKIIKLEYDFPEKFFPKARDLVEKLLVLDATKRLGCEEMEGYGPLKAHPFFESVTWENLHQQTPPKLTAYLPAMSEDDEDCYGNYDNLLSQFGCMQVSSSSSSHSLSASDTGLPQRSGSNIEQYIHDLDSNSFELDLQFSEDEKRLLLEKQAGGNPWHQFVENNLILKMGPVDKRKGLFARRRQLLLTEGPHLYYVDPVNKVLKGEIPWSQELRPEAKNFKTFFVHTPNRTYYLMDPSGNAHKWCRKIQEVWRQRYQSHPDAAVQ
assay: radiometric filter-binding kinase assay, Kinase HotSpot
condition summary: compound 0.5 µM; ATP 10 µM
Is residual activity at least 90%? Then TRUE. If not, FALSE.

[
  {
    "item smiles": "N#C/C(=C1/Nc2ccccc2S1)c1ccnc(NCCc2cccnc2)n1",
    "cat": "TRUE"
  },
  {
    "item smiles": "CCCCc1c(-c2ccc(O)cc2)[nH]c2nccnc12",
    "cat": "TRUE"
  },
  {
    "item smiles": "COc1cccc(-c2cc(=O)c3ccccc3o2)c1N",
    "cat": "TRUE"
  },
  {
    "item smiles": "COc1cc2c(N3CCN(C(=O)Nc4ccc(OC(C)C)cc4)CC3)ncnc2cc1OCCCN1CCCCC1",
    "cat": "TRUE"
  },
  {
    "item smiles": "N/C(=N\\N=C/c1ccc(-c2cccc([N+](=O)[O-])c2)o1)N[N+](=O)[O-]",
    "cat": "TRUE"
  },
  {
    "item smiles": "CN[C@@H]1C[C@H]2O[C@@](C)([C@@H]1OC)n1c3ccccc3c3c4c(c5c6ccccc6n2c5c31)C(=O)NC4",
    "cat": "FALSE"
  }
]

* * *

system: UniProt:Q9HCP0
Sequence (Q9HCP0 whole entry, looked up): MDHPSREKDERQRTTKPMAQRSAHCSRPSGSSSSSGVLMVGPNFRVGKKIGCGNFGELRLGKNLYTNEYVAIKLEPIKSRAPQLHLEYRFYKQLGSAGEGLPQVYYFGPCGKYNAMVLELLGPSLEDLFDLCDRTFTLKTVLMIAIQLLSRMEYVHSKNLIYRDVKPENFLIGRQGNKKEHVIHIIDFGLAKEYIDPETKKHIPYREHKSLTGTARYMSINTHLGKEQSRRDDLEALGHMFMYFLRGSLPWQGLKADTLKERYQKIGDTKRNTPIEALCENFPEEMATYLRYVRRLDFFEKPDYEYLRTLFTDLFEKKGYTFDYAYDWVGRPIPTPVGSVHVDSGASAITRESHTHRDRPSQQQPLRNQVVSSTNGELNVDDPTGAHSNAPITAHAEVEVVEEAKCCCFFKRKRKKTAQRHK
assay: radiometric filter-binding kinase assay, Kinase HotSpot
condition summary: compound 0.5 µM; ATP 10 µM

[
  {
    "item smiles": "N#C/C(=C1/Nc2ccccc2S1)c1ccnc(NCCc2cccnc2)n1",
    "system": "UniProt:Q9HCP0",
    "residual activity (%)": 88.8
  },
  {
    "item smiles": "Cn1cc(/C=C2\\C(=O)Nc3ccc(S(N)(=O)=O)cc32)c2ccccc21",
    "system": "UniProt:Q9HCP0",
    "residual activity (%)": 88.3
  },
  {
    "item smiles": "COc1cc2ncnc(Nc3ccc(O)c(Br)c3)c2cc1OC",
    "system": "UniProt:Q9HCP0",
    "residual activity (%)": 92.4
  },
  {
    "item smiles": "O=c1c2ccccc2[nH]c(=S)n1CCN1CCC(=C(c2ccc(F)cc2)c2ccc(F)cc2)CC1",
    "system": "UniProt:Q9HCP0",
    "residual activity (%)": 92.5
  }
]

* * *

system: CAMKK1 (human) (UniProt Q8N5S9)
Sequence (Q8N5S9 whole entry, looked up): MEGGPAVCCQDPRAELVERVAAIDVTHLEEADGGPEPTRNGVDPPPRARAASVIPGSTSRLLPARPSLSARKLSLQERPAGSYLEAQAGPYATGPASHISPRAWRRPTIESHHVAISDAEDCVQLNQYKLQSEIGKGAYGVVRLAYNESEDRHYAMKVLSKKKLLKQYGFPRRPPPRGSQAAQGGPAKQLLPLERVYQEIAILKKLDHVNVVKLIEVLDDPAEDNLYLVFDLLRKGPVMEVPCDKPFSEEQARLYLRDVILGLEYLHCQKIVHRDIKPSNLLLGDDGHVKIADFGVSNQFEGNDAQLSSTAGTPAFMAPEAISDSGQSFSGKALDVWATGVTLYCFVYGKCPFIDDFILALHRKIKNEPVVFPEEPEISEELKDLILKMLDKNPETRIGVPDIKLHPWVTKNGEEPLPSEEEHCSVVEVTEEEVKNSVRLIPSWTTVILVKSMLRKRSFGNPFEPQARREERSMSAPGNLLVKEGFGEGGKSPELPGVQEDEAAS
assay: radiometric filter-binding kinase assay, Kinase HotSpot
condition summary: compound 0.5 µM; ATP 10 µM

[
  {
    "item smiles": "CCOc1cc2ncnc(Nc3cccc(Br)c3)c2cc1OCC",
    "residual activity": "88.2%"
  },
  {
    "item smiles": "COc1cc2c(Nc3ccc(Br)cc3F)ncnc2cc1OCC1CCN(C)CC1",
    "residual activity": "90.4%"
  },
  {
    "item smiles": "O=c1c(-c2ccc(F)cc2)c(-c2ccncc2)[nH]n1-c1ccc(Cl)cc1",
    "residual activity": "98.5%"
  },
  {
    "item smiles": "N#CCCc1ccc2c(c1)-c1[nH]c3ccc([N+](=O)[O-])cc3c1CC(=O)N2",
    "residual activity": "86.7%"
  },
  {
    "item smiles": "O=c1c2ccccc2[nH]c(=S)n1CCN1CCC(=C(c2ccc(F)cc2)c2ccc(F)cc2)CC1",
    "residual activity": "110%"
  },
  {
    "item smiles": "O=S(=O)(NCCNC/C=C/c1ccc(Br)cc1)c1cccc2cnccc12",
    "residual activity": "99.1%"
  },
  {
    "item smiles": "O=C1NC(=O)c2c1c1c3ccccc3[nH]c1c1[nH]c3cc(Br)ccc3c21",
    "residual activity": "99.1%"
  },
  {
    "item smiles": "N/C(=N\\N=C/c1ccc(-c2cccc([N+](=O)[O-])c2)o1)N[N+](=O)[O-]",
    "residual activity": "106%"
  },
  {
    "item smiles": "O=C1NC(=O)c2cc(Nc3ccc(F)cc3)c(Nc3ccc(F)cc3)cc21",
    "residual activity": "90.2%"
  },
  {
    "item smiles": "N#Cc1c(NC(=O)c2cccc3ccccc23)sc2c1CCCC2",
    "residual activity": "109%"
  },
  {
    "item smiles": "O=C(O)c1ccc2c3c1cccc3c(=O)n1c3ccccc3nc21",
    "residual activity": "45.8%"
  },
  {
    "item smiles": "O=c1cc(N2CCOCC2)oc2c(-c3ccccc3)cccc12",
    "residual activity": "105%"
  },
  {
    "item smiles": "COc1cccc(-c2cc(=O)c3ccccc3o2)c1N",
    "residual activity": "98.8%"
  },
  {
    "item smiles": "O=c1[nH]c2ccccc2n1C1CCN(Cc2ccc(-c3nc4cc5[nH]cnc5cc4nc3-c3ccccc3)cc2)CC1",
    "residual activity": "117%"
  }
]
